- EXPERIMENT: Inhibition of N-terminal His6-tagged recombinant Leishmania infantum promastigotes (MCAN/ES/89/IPZ229/1/89) TryS expressed in Escherichia coli BL21(DE3) Rossetta using saturating concentrations of ATP and GSH and Km concentration of Spd as substrate measured after 30 mins by BIOMOL Green reagent based assay
ASSAY ENDPOINT: IC50 (µM)

>>> val("NCCCCc1cn(-c2ccc(-c3nc(-c4ccc(Oc5ccccc5)cc4)c(-c4ccccc4)s3)c(OCCN3CCNC3=O)c2)nn1")
10.9
>>> val("CCCCCCCCCCCCCCOc1ccc(C[N+](C)(C)C2CCCC2)cc1OC")
5.5
>>> val("CCCCCCCCCCCC(=O)NC(COC(=O)c1ccc(OCCN)c(OCCN)c1)COC(=O)c1cc(OCCN)c(OCCN)c(OCCN)c1 (stereo unspecified)")
9.9
>>> val("O=C(OC[C@H]1O[C@H](O[C@H]2O[C@H](COC(=O)c3cc(O)c(O)c(O)c3)[C@@H](OC(=O)c3cc(O)c(O)c(O)c3)[C@H](OC(=O)c3cc(O)c(O)c(O)c3)[C@H]2OC(=O)c2cc(O)c(O)c(O)c2)[C@H](OC(=O)c2cc(O)c(O)c(O)c2)[C@@H](OC(=O)c2cc(O)c(O)c(O)c2)[C@@H]1OC(=O)c1cc(O)c(O)c(O)c1)c1cc(O)c(O)c(O)c1")
5.6

(P) CCCCCCCCCCCCCCCOc1cc(C[N+](C)(C)C2CCCC2)ccc1OCCCCCCCCCCCCCC
(Q) O=C(O[C@@H]1OC[C@@H](OC(=O)c2ccc(O)c(O)c2O)[C@@H](OC(=O)c2ccc(O)c(O)c2O)[C@H]1OC(=O)c1ccc(O)c(O)c1O)c1ccc(O)c(O)c1O
q: Would you kindly point out which of P and Q has the smaller IC50 figure? Bench note: the answer is the label of the chosen record.
a: Q
(Q: 4.7 µM, P: 8.4 µM)

###

Each entry below lists one item and its recorded EC50 value.
- Test system: Leishmania infantum
- EXPERIMENT: Leishmanicidal activity against Leishmania infantum axenic amastigotes (MCAN/ES/89/IPZ229/1/89) assessed as inhibition of parasite proliferation measured after 24 hrs by resazurin dye based fluorescence analysis
- Type: functional, organism-based
- ASSAY CONDITIONS: MCAN/ES/89/IPZ229/1/89, 24 h
Answer format: numeric, µM implied, no suffix.

These solved cases illustrate the format of a correct answer.
>>> val("O=C(O[C@@H]1OC[C@@H](OC(=O)c2ccc(O)c(O)c2O)[C@@H](OC(=O)c2ccc(O)c(O)c2O)[C@H]1OC(=O)c1ccc(O)c(O)c1O)c1ccc(O)c(O)c1O")
47.6
>>> val("NCCCCc1cn(-c2ccc(-c3nc(-c4ccc(Oc5ccccc5)cc4)c(-c4ccccc4)s3)c(OCCN3CCNC3=O)c2)nn1")
21.5

q: Test system Leishmania infantum; read-out EC50; what value for CCCCCCCCCCCCCCOc1ccc(C[N+](C)(C)C2CCCC2)cc1OC ?
a: 0.4

q: Test system Leishmania infantum; read-out EC50; what value for CCCCCCCCCCCC(=O)NC(COC(=O)c1ccc(OCCN)c(OCCN)c1)COC(=O)c1cc(OCCN)c(OCCN)c(OCCN)c1 (configuration not stated) ?
a: 7.3

q: Test system Leishmania infantum; read-out EC50; what value for CCCCCCCCCCCCCCCCOP(=O)([O-])OCC[N+](C)(C)C ?
a: 0.5

q: Test system Leishmania infantum; read-out EC50; what value for O=C(OC[C@H]1O[C@H](O[C@H]2O[C@H](COC(=O)c3cc(O)c(O)c(O)c3)[C@@H](OC(=O)c3cc(O)c(O)c(O)c3)[C@H](OC(=O)c3cc(O)c(O)c(O)c3)[C@H]2OC(=O)c2cc(O)c(O)c(O)c2)[C@H](OC(=O)c2cc(O)c(O)c(O)c2)[C@@H](OC(=O)c2cc(O)c(O)c(O)c2)[C@@H]1OC(=O)c1cc(O)c(O)c(O)c1)c1cc(O)c(O)c(O)c1 ?
a: 43.7

###

- EXPERIMENT: Selectivity index, ratio of CC50 for cytotoxicity against human HepG2 cells to EC50 for Anti-Leishmanial activity against GFP-expressing Leishmania infantum axenic amastigotes infected in human THP-1 cells
- Format: toxicity, cell-based
- ASSAY CONDITIONS: read-out: Ratio CC50/EC50
ASSAY ENDPOINT: selectivity ratio
# answer = number (no unit)

>>> val("NCCCCc1cn(-c2ccc(-c3nc(-c4ccc(Oc5ccccc5)cc4)c(-c4ccccc4)s3)c(OCCN3CCNC3=O)c2)nn1")
1.2

Attention now turns to another entry.
q: Query (molecule): CCCCCCCCCCCCCCOc1ccc(C[N+](C)(C)C2CCCC2)cc1OC ; field requested: selectivity ratio
a: 35.5

###

- EXPERIMENT: Inhibition of N-terminal His6-tagged recombinant Leishmania infantum promastigotes (MCAN/ES/89/IPZ229/1/89) TryS expressed in Escherichia coli BL21(DE3) Rossetta using saturating concentrations of ATP, GSH and Spd as substrate measured after 30 mins by BIOMOL Green reagent based assay
ASSAY ENDPOINT: IC50 (µM)

These solved cases illustrate the format of a correct answer.
>>> val("CCCCCCCCCCCCCCCOc1cc(C[N+](C)(C)C2CCCC2)ccc1OCCCCCCCCCCCCCC")
9.8
>>> val("NCCCCc1cn(-c2ccc(-c3nc(-c4ccc(Oc5ccccc5)cc4)c(-c4ccccc4)s3)c(OCCN3CCNC3=O)c2)nn1")
14.8
>>> val("CCCCCCCCCCCCCCOc1ccc(C[N+](C)(C)C2CCCC2)cc1OC")
7.9
>>> val("O=C(OC[C@H]1O[C@H](O[C@H]2O[C@H](COC(=O)c3cc(O)c(O)c(O)c3)[C@@H](OC(=O)c3cc(O)c(O)c(O)c3)[C@H](OC(=O)c3cc(O)c(O)c(O)c3)[C@H]2OC(=O)c2cc(O)c(O)c(O)c2)[C@H](OC(=O)c2cc(O)c(O)c(O)c2)[C@@H](OC(=O)c2cc(O)c(O)c(O)c2)[C@@H]1OC(=O)c1cc(O)c(O)c(O)c1)c1cc(O)c(O)c(O)c1")
4.4

(A) CCCCCCCCCCCC(=O)NC(COC(=O)c1ccc(OCCN)c(OCCN)c1)COC(=O)c1cc(OCCN)c(OCCN)c(OCCN)c1 (stereo unspecified)
(B) O=C(O[C@@H]1OC[C@@H](OC(=O)c2ccc(O)c(O)c2O)[C@@H](OC(=O)c2ccc(O)c(O)c2O)[C@H]1OC(=O)c1ccc(O)c(O)c1O)c1ccc(O)c(O)c1O
q: So which one has the bigger IC50 here, A or B ? Bench note: the answer is the label of the chosen record.
a: A

###

- EXPERIMENT: Inhibition of N-terminal His6-tagged recombinant Leishmania infantum promastigotes (MCAN/ES/89/IPZ229/1/89) TryS expressed in Escherichia coli BL21(DE3) Rossetta by BIOMOL Green reagent based assay
ASSAY ENDPOINT: IC50 (µM)
Answer format: numeric, µM implied, no suffix.

q: Query (molecule): CCCCCCCCCCCCCCCCOP(=O)([O-])OCC[N+](C)(C)C ; field requested: IC50
a: 45.6

###

- EXPERIMENT: Competitive inhibition of N-terminal His6-tagged recombinant Leishmania infantum promastigotes (MCAN/ES/89/IPZ229/1/89) TryS expressed in Escherichia coli BL21(DE3) Rossetta with fixed concentration of ATP and GSH and varying concentrations of GspdSH as substrate measured after 30 mins by Lineweaver-Burk double-reciprocal plot analysis
Each entry below lists one item and its recorded Ki value.
Answer format: numeric, µM implied, no suffix.

>>> val("NCCCCc1cn(-c2ccc(-c3nc(-c4ccc(Oc5ccccc5)cc4)c(-c4ccccc4)s3)c(OCCN3CCNC3=O)c2)nn1")
3.9

q: Query (compound): CCCCCCCCCCCC(=O)NC(COC(=O)c1ccc(OCCN)c(OCCN)c1)COC(=O)c1cc(OCCN)c(OCCN)c(OCCN)c1 (configuration not stated) ; field requested: Ki
a: 2.6

Cited source for all entries: ChEMBL document CHEMBL5346864
